- measured.on: human ether-à-go-go-related gene (hERG) potassium channel (human)
- assay.text: primary screen, population patch clamp on CHO cells stably expressing hERG; higher = less effect of the substance;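 note: peak tail current of the secondary pulse compared with the same well before compound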
In all, about 310,000 compounds went through this assay and about 14,000 (4.5%) showed an effect of 50% or more. Effects have a minus sign here. The full list was thinned out, with strong results kept by preference.
Hi there, I'd appreciate the recorded hERG current change (%, negative = inhibition) at 10uM for every entry that follows.
Quick note: number first, unit second.

Example results:
compound: COc1cccc(C(=O)OCCN2C(=O)c3ccccc3C2=O)c1OC
result: 4.5%
//
compound: CC(C)(C)C(=O)C[n+]1cccc(C(N)=O)c1.[Br-]
result: 21%
//
compound: O=C(NCCc1ccc(Cl)cc1)C(=O)c1c[nH]c2ccccc12
result: -10.8%
//
compound: c1ccc(-n2c(Sc3cnccn3)nnc2-c2cccs2)cc1
result: -33.3%
//
compound: COc1ccccc1N1CCN(S(=O)(=O)/C=C/c2ccccc2)CC1
result: -11.3%
//
compound: O=C(N/N=C/c1ccc(OC(=O)c2cccs2)cc1)c1ccc(F)cc1
result: 10%
//
compound: CCCCOC(=O)C1=C(C)Nc2ncnn2C1c1ccc(OC)c(OC)c1OC (stereo not shown)
result: -18.3%
//
compound: CCOc1cc2c(Cl)ncnc2c(OCC)c1OCC
result: 23.3%
//
compound: CCC1C(=O)NCCN1C(=O)c1cccc(OC2CCN(S(=O)(=O)N(C)C)CC2)c1 (stereo not shown)
result: 14%

Continue with the next compound.
Can you share its hERG current change (%, negative = inhibition) at 10uM? I mean this compound: S=C(NCc1ccc(Cl)cc1Cl)Nc1ccccc1 10.1%

----------
- measured.on: human ether-à-go-go-related gene (hERG) potassium channel (human)
- assay.text: primary screen, population patch clamp on CHO cells stably expressing hERG; higher = less effect of the substance
Out of some 310,000 compounds screened, about 14,000 (4.5%) showed an effect of 50% or more. Effects have a minus sign here. The full list was thinned out, with strong results kept by preference.
Outcome label depends on hERG current change (%, negative = inhibition) at 10uM relative to -30%: at/above gives rule met, below gives rule not met.

Record excerpt, results attached:
molecule: S=C(Nc1ccccc1Cl)NC1CC2CCCC(C1)N2C1CC1 (stereo not drawn)
cat: rule met

molecule: Cc1ccc(Nc2cc(C)nc3nc(C)nn23)c(C)c1
cat: rule met

molecule: O=C(Nc1nc2ccc(SC(F)F)cc2s1)c1ccc(NS(=O)(=O)c2ccc(F)c(F)c2)cc1
cat: rule met

molecule: Cc1cc(C)cc(NC(=O)NC2CCCCCCC2)c1
cat: rule met

molecule: Cc1[nH]nc(-c2ccc(OCc3cnn(-c4ccccc4)c3)cc2O)c1Oc1ccc(F)cc1
cat: rule met

molecule: Cc1cc(Nc2cccc(F)c2)n2nc(C)nc2n1
cat: rule met

molecule: COc1cc2c(cc1Cl)/C(=C\CCN(C)C)c1ccccc1S2.O=S(=O)(O)O
cat: rule not met

molecule: CN(C)S(=O)(=O)c1ccc2c(c1)C(=O)c1cc(S(=O)(=O)N(C)C)ccc1CC2
cat: rule met

molecule: COCCN1C(=O)C(=O)/C(=C(/O)c2ccc(S(=O)(=O)N3CCOCC3)cc2)C1c1ccc(O)cc1 (stereo not drawn)
cat: rule met

molecule: CN1CCN(CC/C=C2\c3ccccc3Sc3ccc(S(=O)(=O)N(C)C)cc32)CC1
cat: rule not met

// inclusive: hERG current change (%, negative = inhibition) at 10uM at least -30%? input: CC1CCCCC12NC(=O)N(Cn1nnc3ccccc3c1=O)C2=O (stereo not drawn) rule met

Same question, Cc1cc(C)c2c(CN3CCN(Cc4ccc5c(c4)OCO5)CC3)cc(=O)oc2c1C this time rule not met

Same question, S=C(Nc1ccc(Cl)cc1)NC1CC2CCCC(C1)N2C1CC1 (stereo not drawn) this time rule not met

Same question, CCN1CCN(C(=O)c2ccc3c(Cl)c4c(nc3c2)CCCC4)CC1 this time rule met

----------
- measured.on: human ether-à-go-go-related gene (hERG) potassium channel (human, UniProt Q12809)
- Sequence (Q12809 whole entry, looked up): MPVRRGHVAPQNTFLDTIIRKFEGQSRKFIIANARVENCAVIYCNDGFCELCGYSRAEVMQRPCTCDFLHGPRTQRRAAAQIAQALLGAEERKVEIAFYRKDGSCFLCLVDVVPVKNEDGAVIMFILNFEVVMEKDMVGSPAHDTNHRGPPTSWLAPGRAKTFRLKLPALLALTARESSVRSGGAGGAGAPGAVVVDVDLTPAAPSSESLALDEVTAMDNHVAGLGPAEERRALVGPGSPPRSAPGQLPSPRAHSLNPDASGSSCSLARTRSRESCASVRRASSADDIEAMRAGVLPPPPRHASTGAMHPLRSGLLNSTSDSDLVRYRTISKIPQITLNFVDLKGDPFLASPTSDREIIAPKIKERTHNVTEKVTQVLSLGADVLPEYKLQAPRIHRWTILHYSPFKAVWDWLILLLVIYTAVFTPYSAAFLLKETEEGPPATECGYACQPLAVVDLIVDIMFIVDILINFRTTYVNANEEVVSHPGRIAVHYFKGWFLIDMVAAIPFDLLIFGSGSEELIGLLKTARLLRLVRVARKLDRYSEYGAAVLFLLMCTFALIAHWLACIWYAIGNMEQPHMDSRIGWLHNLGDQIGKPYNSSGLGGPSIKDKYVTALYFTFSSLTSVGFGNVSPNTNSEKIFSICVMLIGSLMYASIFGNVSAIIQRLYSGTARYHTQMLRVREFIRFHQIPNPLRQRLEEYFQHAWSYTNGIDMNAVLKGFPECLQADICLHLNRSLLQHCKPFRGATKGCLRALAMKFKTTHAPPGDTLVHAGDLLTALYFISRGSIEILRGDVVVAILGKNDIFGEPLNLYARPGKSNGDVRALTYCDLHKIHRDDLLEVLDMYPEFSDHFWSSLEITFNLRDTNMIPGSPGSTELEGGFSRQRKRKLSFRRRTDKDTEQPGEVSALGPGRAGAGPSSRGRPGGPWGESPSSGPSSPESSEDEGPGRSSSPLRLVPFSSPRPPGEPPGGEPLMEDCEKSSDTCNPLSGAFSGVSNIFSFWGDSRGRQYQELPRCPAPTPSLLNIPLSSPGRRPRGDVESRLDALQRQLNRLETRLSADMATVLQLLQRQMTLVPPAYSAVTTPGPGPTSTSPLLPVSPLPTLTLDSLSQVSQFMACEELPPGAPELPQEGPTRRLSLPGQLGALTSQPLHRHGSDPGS
- assay.text: primary screen, population patch clamp on CHO cells stably expressing hERG; higher = less effect of the substance
The whole screen tested about 310,000 compounds, of which about 14,000 (4.5%) showed an effect of 50% or more. Effects have a minus sign here. The sample as a whole holds a higher share of strong results than the screen did.
reported.endpoint: hERG current change (%, negative = inhibition) at 10uM (%)
Numbers only, in %.

Example results:
compound: N#CCCN(Cc1cccnc1)C(=O)Nc1ccccc1
measured.on: human ether-à-go-go-related gene (hERG) potassium channel (human, UniProt Q12809)
value.unit: %
number: -3.06
--
compound: C/C(=N\NC(=O)CC(C)C)c1c(C(F)(F)F)[nH]n(-c2nc3ccccc3s2)c1=O
measured.on: human ether-à-go-go-related gene (hERG) potassium channel (human, UniProt Q12809)
value.unit: %
number: 8.88

Please state hERG current change (%, negative = inhibition) at 10uM for every compound in the list that follows.
1. Cc1ccc(C2(C)NC(=O)N(CC(=O)NC(C)c3ccccc3)C2=O)cc1 (stereo not drawn)
2. CC(=O)c1c(CC(=O)O)[nH]n(-c2nc3ccccc3s2)c1=O
3. Cc1ccc(OCC(=O)NN2C(=O)c3ccccc3C2=O)c(C)c1
4. CCc1ccc(NS(=O)(=O)c2cc3[nH]c(=O)c(=O)[nH]c3cc2C)cc1
5. COc1ccc(-c2nc3ccccc3c(C(=O)Nc3ccc(S(=O)(=O)Nc4cc(C)on4)cc3)c2C)cc1

11.7
3.17
6.34
9.15
-7.09

Please state hERG current change (%, negative = inhibition) at 10uM for every compound in the list that follows.
1. COC(=O)C1=C(c2ccccc2OCc2ccccc2)C[C@@H]2CC[C@H]1N2C(=O)NCc1ccc(N(C)C)cc1
2. CCCc1[nH]n(-c2nc3ccccc3s2)c(=O)c1C=NCCCN(CC)CC

1. 10.9
2. -75.9

----------
- measured.on: human ether-à-go-go-related gene (hERG) potassium channel (human, UniProt Q12809)
- assay.text: primary screen, population patch clamp on CHO cells stably expressing hERG; higher = less effect of the substance
Among all 310,000 compounds or so, about 14,000 (4.5%) showed an effect of 50% or more. Effects have a minus sign here. For the sample, strong results were picked, then their nearest neighbours and some compounds at random.
Outcome label depends on hERG current change (%, negative = inhibition) at 10uM relative to -10%: at/above gives 1, below gives 0.

Record excerpt, results attached:
compound: O=C(NCCCN1CCOCC1)/C(=C/c1cccnc1)NC(=O)c1ccccc1
cat: 0
--
compound: CCOc1ccc(NC(=O)CN2CCN(CC(=O)Nc3ccc(OC)cc3OC)CC2)cc1
cat: 0
--
compound: Cc1ccc(NC(=O)c2cnn(-c3ccccc3)c2NC(=O)c2ccco2)cc1
cat: 1
--
compound: COc1cc(OC)c(C2=NOC(C(=O)Nc3ccc4c(c3)OCO4)C2)cc1Cl (stereo not drawn)
cat: 1
--
compound: c1cncc(CNc2nc(-c3cccnc3)nc3ccccc23)c1
cat: 0

// inclusive: hERG current change (%, negative = inhibition) at 10uM at least -10%? input: Cl.Fc1ccc(OCCCCN2CCOCC2)cc1 1

Same question, COc1ccccc1N1CCN(Cc2ccc(F)cc2)CC1 this time 0

----------
Hi there, I'd appreciate the recorded hERG current change (%, negative = inhibition) at 10uM for every entry that follows.
- measured.on: human ether-à-go-go-related gene (hERG) potassium channel (human)
- assay.text: primary screen, population patch clamp on CHO cells stably expressing hERG; higher = less effect of the substance
Out of some 310,000 compounds screened, about 14,000 (4.5%) showed an effect of 50% or more. The effect is printed as a negative number. This is one part of a sample in which strong results are shown more often than they occur.
Answers are plain numbers, in %.

Please state hERG current change (%, negative = inhibition) at 10uM for every compound in the list that follows.
1. O=C(CCc1nnc2n(Cc3ccc(Cl)cc3)c(=O)c3ccccc3n12)NCCN1CCCC1
2. CC1CCCCN1CCNC(=O)CCc1nnc2n(Cc3ccccc3)c(=O)c3ccccc3n12 (centres unmarked)
3. Cc1ccc(Cn2c(=O)c3ccccc3n3c(CCC(=O)NCCN4CCOCC4)nnc23)cc1
4. O=C(CCc1nnc2n(Cc3ccc(F)cc3)c(=O)c3ccccc3n12)NCCCN1CCOCC1

1. -75.8
2. -51.6
3. -19.5
4. -16.4

Can you share its hERG current change (%, negative = inhibition) at 10uM? I mean this compound: O=C(CCc1nnc2n(Cc3ccc(Cl)cc3)c(=O)c3ccccc3n12)NCCCN1CCOCC1 -59.9

----------
- measured.on: human ether-à-go-go-related gene (hERG) potassium channel (human, UniProt Q12809)
- assay.text: primary screen, population patch clamp on CHO cells stably expressing hERG; higher = less effect of the substance
- Description: Briefly, Chinese hamster ovary (CHO) cells stably expressing the hERG channel were dislodged from tissue culture flasks and dispensed into PPC plates. […] During the recording, background leak currents were estimated by a 100 ms step to -80 mV from an initial holding potential of -70 mV and subtracted from the subsequent current measurement. The campaign was conducted in two phases using slight differences in recording protocol. […]
The whole screen tested about 310,000 compounds, of which about 14,000 (4.5%) showed an effect of 50% or more. Effects have a minus sign here. The entries come from a sample that favours strong results as a whole.
reported.endpoint: hERG current change (%, negative = inhibition) at 10uM (%)
Answers are plain numbers, in %.

Example results:
molecule: O=C(NCc1ccccc1)c1ccc(CS(=O)(=O)Cc2ccccc2F)o1
number: -5.62
--
molecule: O=C(NN1C(=O)C2C3c4ccccc4C(c4ccccc43)C2C1=O)c1ccc(Cl)cc1 (stereo not drawn)
number: -8.19
--
molecule: COc1ccc(CC(=O)NNC(=O)COc2ccc(Cl)cc2C)cc1S(=O)(=O)N1CCOCC1
number: -36.1
--
molecule: COc1cc(C(C)=O)ccc1OCC(=O)Nc1ccc(Cl)c(S(=O)(=O)N2CCOCC2)c1
number: -66.7
--
molecule: COc1ccc(C2=NC(=O)NC2c2ccc(OC)cc2)cc1 (stereo not drawn)
number: -29.4
--
molecule: COC(=O)C1CN(C(=O)C(C)Oc2cccc(C)c2C)c2ccccc2O1 (stereo not drawn)
number: -8.63

Please state hERG current change (%, negative = inhibition) at 10uM for every molecule in the list that follows.
1. Cc1cccc2cc3c(N)c(C#N)sc3nc12
2. Cc1ccc(C(=O)NNC(=O)COc2ccc(Cl)cc2C)o1
3. COc1ccc(Cl)cc1NC(=O)COc1ccc(S(=O)(=O)N2CCOCC2)cc1C

[21.5, -57.6, 10.8]
